Values were extracted from ChEMBL document CHEMBL3217461.

# Test system: A549
# EXPERIMENT SUMMARY: Cytotoxicity against human A549 cells after 48 hrs by MTT assay
# Format: functional, cell-based
# CONDITIONS: A549, 48 h
ASSAY METRIC: pIC50
Numbers only, as −log10 of the molar value.

Solved entries:
* COc1ccc(C2=NOC(COc3ccc(-c4nnnn4-c4cc(OC)c(OC)c(OC)c4)cc3N)C2)cc1O (stereo not given) | 5.67
* COc1cc(C2=NOC(COc3ccc(-c4nnnn4-c4cc(OC)c(OC)c(OC)c4)cc3N)C2)ccc1O (stereo not given) | 5.70
* COc1cc(-n2nnnc2-c2ccc(OCC3CC(c4ccccc4F)=NO3)c(N)c2)cc(OC)c1OC (stereo not given) | 5.83

List reported pIC50 for each of these compounds:
1. COc1ccc(/C=C\c2cc(OC)c(OC)c(OC)c2)cc1O
2. COc1ccc(C2=NOC(COc3ccc(-c4nnnn4-c4cc(OC)c(OC)c(OC)c4)cc3N)C2)cc1N (stereo not given)
3. COc1cc(-n2nnnc2-c2ccc(OCC3CC(c4ccc(C(F)(F)F)cc4)=NO3)c(N)c2)cc(OC)c1OC (stereo not given)

output:
1: 6.26; 2: 5.68; 3: 5.91

Give pIC50 for all compounds that follow.
1. COc1ccc(C2=NOC(COc3ccc(-c4nnnn4-c4cc(OC)c(OC)c(OC)c4)cc3N)C2)cc1OC (stereo not given)
2. COc1ccc(C2=NOC(COc3ccc(-c4nnnn4-c4cc(OC)c(OC)c(OC)c4)cc3N)C2)cc1[N+](=O)[O-] (stereo not given)
3. COc1cc(C2=NOC(c3cc(OC)c(OC)c(OC)c3)C2)ccc1O (stereo not given)
4. COc1ccc(-c2nnnn2-c2cc(OC)c(OC)c(OC)c2)cc1N
5. COc1cc(-n2nnnc2-c2ccc(OCC3CC(c4cccc(Cl)c4)=NO3)c(N)c2)cc(OC)c1OC (stereo not given)
6. COc1cc(-n2nnnc2-c2ccc(OCC3CC(c4ccc(OC)c(OC)c4OC)=NO3)c(N)c2)cc(OC)c1OC (stereo not given)
7. COc1ccc(F)c(C2=NOC(COc3ccc(-c4nnnn4-c4cc(OC)c(OC)c(OC)c4)cc3N)C2)c1 (stereo not given)

output:
1: 5.60; 2: 5.65; 3: 5.59; 4: 5.58; 5: 5.87; 6: 5.69; 7: 5.82

// input: 2 compounds below; output: pIC50 for each
1. COc1cc(C2=NOC(COc3ccc(-c4nnnn4-c4cc(OC)c(OC)c(OC)c4)cc3N)C2)cc(OC)c1OC (stereo not given)
2. COc1ccc(OC)c(C2=NOC(COc3ccc(-c4nnnn4-c4cc(OC)c(OC)c(OC)c4)cc3N)C2)c1 (stereo not given)

output:
1. 5.69
2. 5.71

---

# System: A549
# EXPERIMENT SUMMARY: Cell cycle arrest in human A549 cells assessed as accumulation at G2/M phase at 2 uM after 24 hrs using propidium iodide staining by flow cytometer analysis (reference value: 13.98%)
# Assay type: functional
ASSAY METRIC: Activity (%)
Give bare numbers, in %.

Worked set:
* COc1ccc(F)c(C2=NOC(COc3ccc(-c4nnnn4-c4cc(OC)c(OC)c(OC)c4)cc3N)C2)c1 (configuration not stated) | 81.29
* COc1ccc(C2=NOC(COc3ccc(-c4nnnn4-c4cc(OC)c(OC)c(OC)c4)cc3N)C2)cc1OC (configuration not stated) | 20.18
* COc1ccc(C2=NOC(COc3ccc(-c4nnnn4-c4cc(OC)c(OC)c(OC)c4)cc3N)C2)cc1N (configuration not stated) | 17.03
* COc1ccc(C2=NOC(COc3ccc(-c4nnnn4-c4cc(OC)c(OC)c(OC)c4)cc3N)C2)cc1O (configuration not stated) | 21.81
* COc1ccc(-c2nnnn2-c2cc(OC)c(OC)c(OC)c2)cc1N | 23.1

Answer for every listed entry: what is its Activity? The entries follow.
1. COc1cc(C2=NOC(c3cc(OC)c(OC)c(OC)c3)C2)ccc1O (configuration not stated)
2. COc1cc(C2=NOC(COc3ccc(-c4nnnn4-c4cc(OC)c(OC)c(OC)c4)cc3N)C2)cc(OC)c1OC (configuration not stated)

output:
27.86
20.72
